Target: T1, TNF-R1 (a protein having the amino acid sequence, Accession No. M58286 registered at GENBANK) (UniProt P19438 30-211, limits assumed)
T1 construct: also called TNF receptor having a molecular weight of 55 kilo daltons
T1 sequence (looked up): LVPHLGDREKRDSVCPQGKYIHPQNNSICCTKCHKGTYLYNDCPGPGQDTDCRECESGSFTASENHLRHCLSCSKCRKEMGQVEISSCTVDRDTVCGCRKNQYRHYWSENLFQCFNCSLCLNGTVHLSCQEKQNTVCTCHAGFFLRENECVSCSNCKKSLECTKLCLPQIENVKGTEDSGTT
Experiment: SPR (BIACORE 2000), receptor on sensor tip; grade 3 = 0.5 to 2 times that of recombinant TNF-α
Excerpt: Using the above detector based on surface plasmon resonance effect again, the resulting clones binding to TNF-R1 (or TNF-R2) were subjected to the remaining sensor tip conjugated with TNF-R2 (or TNF-R1) to measure receptor binding affinity and select clones having a variation of receptor binding affinity. […] The resulting DNAs were digested with restrict enzymes NdeI and BamHI to obtain DNA fragments. […]
Documented binding affinity relative to recombinant TNF-α across a set of binders

Before answering, review these 2 worked examples.
lysine-replaced human TNF (ligand, Parent of all clones; also called Lysine-replaced TNF; lysine-replaced mutant) VRSSSRTPSDMPVAHVVANPQAEGQLQWLNRRANALLANGVELRDNQLVVPSEGLYLIYSQVLFSGQGCPSTHVLLTHTISRIAVSYQTPVNLLSAIRSPCQRETPEGAEANPWYEPIYLGGVFQLEPGDRLSAEINRPDYLDFAESGQVYFGIIAL	0.5 to 2 fold
TNF mutant protein of clone No. 5 (ligand, Mutant of lysine-replaced TNF, made in E. coli) VRSSSRTPSDMPVAHVVANPQAEGQLQWRNSHANALLANGVELRDNQLVVPSEGLYLIYSQVLFSGQGCPSTHVLLTHTISRIAVSYQTPVNLLSAIRSPCQRETPEGAEANPWYEPIYLGGVFQLEPGDRLSAEINRPDYLDFSGTGQVYFGIIAL	0.5 to 2 fold

Could you now consider this next binder?
Can you share its binding affinity relative to recombinant TNF-α? I mean this binder: TNF mutant protein of clone No. 27 (ligand, Mutant of lysine-replaced TNF, made in E. coli) VRSSSRTPSDMPVAHVVANPQAEGQLQWLNRRANALLANGVELRDNQLVVPSEGLYLIYSQVLFSGQGCPSTHVLLTHTISRITPAYPRPVNLLSAIRSPCQRETPEGAEANPWYEPIYLGGVFQLEPGDRLSAEINRPDYLDFAESGQVYFGIIAL
0.5 to 2 fold

Values were extracted from patent US20100222258A1.
